- System: CCRF-CEM leukemia
- assay_explanation: NCI-60 one-dose screen, 48 h (100 = growth as untreated, 0 = no growth, -100 = all killed)
- settings: 10 µM unless noted
The panel holds about 83,000 compounds, 20% with a hit somewhere; the sample as a whole holds those more often.
assay_metric: growth (%)

> print(dat)
                                   compound  system.under.test  experimental.value
1  O=c1c2ccccc2n(CC(O)CN2CCCC2)c2c(Br)cccc12 (centres undefined)  CCRF-CEM leukemia                82.3
2  COc1cc(NCC(=O)Nc2cc(Nc3ccc(C)cc3)ncn2)c(Cl)c(OC)c1Cl  CCRF-CEM leukemia                81.8
3  O=[N+]([O-])c1ccc(Oc2ccc(-c3ccccc3)cc2)cc1  CCRF-CEM leukemia                78.3
4  Cc1cc(Nc2nc(SCc3ccc(C(=O)Nc4ccc(F)cc4N)cc3)nn3cccc23)n[nH]1  CCRF-CEM leukemia                 9.8

====

- Test system: NCI/ADR-RES ovarian
- assay_explanation: NCI-60 one-dose screen, 48 h (100 = growth as untreated, 0 = no growth, -100 = all killed)
- settings: 10 µM unless noted
About 83,000 compounds went through this panel and 20% of them were active in at least one assay; those are over-represented in the sample as a whole.
Lab note: compare growth with 70%, writing 1 if less and 0 if equal or more.

> print(dat)
                                   compound    system.under.test  assigned.label
1                   CN(CCC#N)C(=O)Nc1ccccc1  NCI/ADR-RES ovarian               0
2  C#C[C@@]1(O)[C@@H](CO)O[C@@H](n2cnc3c(-c4ccccc4)ncnc32)[C@@H]1O  NCI/ADR-RES ovarian               0
3  COc1cc2c(cc1OC)C(Sc1ccc(Cl)cc1)c1c(nc(N)c(C#N)c1N)O2 (stereo not drawn)  NCI/ADR-RES ovarian               1
4  CC(=O)[C@@H]1CC[C@]2(C(=O)O)CC[C@]3(C)[C@H](CC[C@@H]4[C@@]5(C)Cc6c([nH]c7ccccc67)C(C)(C)[C@@H]5CC[C@]43C)[C@@H]12  NCI/ADR-RES ovarian               1
5       Cc1[nH]c(N=Nc2ccccc2)nc1N=Nc1ccccc1  NCI/ADR-RES ovarian               1
6  COc1cc(C(=O)N2CCN(c3ccccc3OC)CC2)c(NC(=O)c2cnccn2)cc1OCc1ccccc1  NCI/ADR-RES ovarian               0
7  COC(=O)/C=C/c1cc(OC(C)=O)c2c(c1)C(C(=O)OC)C(c1ccc(OC(C)=O)c(OC(C)=O)c1)O2 (stereo not drawn)  NCI/ADR-RES ovarian               1
8  O=C(O)c1ccc(-n2cc(/C=N/Nc3ccc(Cl)cc3Cl)c(-c3ccccc3)n2)cc1  NCI/ADR-RES ovarian               0

====

- Test system: RXF 393 renal
- assay_explanation: NCI-60 one-dose screen, 48 h
- settings: 10 µM unless noted
The panel holds about 83,000 compounds, 20% with a hit somewhere; the sample as a whole holds those more often. Active and inactive are the calls of the source. The calls were made as follows: active = growth percent below 10; inactive = the rest.
Outcomes: 1 for active, 0 for inactive

molecule	system_under_test	assigned_label
CC(=O)OCC1OC(OC2C(COC(C)=O)OC(OCCC[S-])C(OC(C)=O)C2OC(C)=O)C(OC(C)=O)C(OC(C)=O)C1OC(C)=O.[Au+].c1ccc(CN2[CH-]N(Cc3ccccc3)C(c3ccccc3)=C2c2ccccc2)cc1 (configuration not stated)	RXF 393 renal	0
C=C(C)[C@@H]1CC[C@]2(C(=O)NCCCO)CC[C@]3(C)[C@H](CC[C@@H]4[C@@]5(C)CCCNC(C)(C)[C@@H]5CC[C@]43C)[C@@H]12	RXF 393 renal	0
CC1(c2ccccc2Cl)NC(=O)NC1=O (configuration not stated)	RXF 393 renal	0
COc1ccc(-c2cc(C(=O)N3N=C(c4ccc(N)cc4)CC3c3ccc(OC)cc3)c3cc(OC)ccc3n2)cc1 (configuration not stated)	RXF 393 renal	0
CCOc1ccccc1C(=O)/C=C/c1cc2ccccc2[nH]c1=O	RXF 393 renal	1
CCOC(=O)c1cnn(-c2nc(-c3ccc(F)cc3)c(C#N)c(N3CCOCC3)n2)c1N	RXF 393 renal	0
CCCNc1nc(C)[nH]c(=O)c1S	RXF 393 renal	0
COc1ccc(-c2cn(-c3ccc(Cl)cc3)c(=S)[nH]2)cc1OC	RXF 393 renal	0
NC(=O)c1ccc(C2C3=C(CCCC3=O)OC3=C2C(=O)c2ccccc2C3=O)cc1 (configuration not stated)	RXF 393 renal	0
NS(=O)(=O)c1ccc(C2C3=C(CCCC3=O)OC3=C2C(=O)c2ccccc2C3=O)cc1 (configuration not stated)	RXF 393 renal	1
COc1cc2c(cc1OCCCOc1cc3c(cc1OC)C(=O)N1CC(F)(F)C[C@H]1C=N3)N=C[C@@H]1CC(F)(F)CN1C2=O	RXF 393 renal	1
S=C(Nc1ccccc1)c1ccccn1	RXF 393 renal	0
